Cited source for all entries: patent US20250304549A1

# ASSAYED_TARGET: pan-HDAC
# PROTOCOL: In vitro enzyme inhibition assay - HDAC (HDAC-Glo I/II), pan-HDAC
# Type: biochemical
Counter-ions that a name gives are not always drawn.
Task for the reader: assign each of the following compounds its reported IC50.
Give bare numbers, in nM.

Record excerpt, results attached:
| COMPOUND | RESULT_UNITS | IC50 |
| --- | --- | --- |
| COc1ccc(-c2cnc(N3CCC(NCc4ccc(/C=C/C(=O)NO)cc4)CC3)c(C#N)c2-c2ccc(C#N)c(O)c2)cc1O [Example 166, hydrochloride] | nM | 2.27 |
| COc1ccc(-c2c(C)nc(N3CCC(NCc4ccc(/C=C/C(=O)NO)cc4)CC3)c(C#N)c2-c2ccc(C#N)c(F)c2)cc1O [Example 50, formate] | nM | 70.7 |
| Cn1cnc2cc(-c3cnc(N4CCC(NCc5ccc(/C=C/C(=O)NO)cc5)CC4)c(C#N)c3-c3ccc(C#N)c(F)c3)ccc21 [Example 136] | nM | 10.4 |
| CC(C)(O)Cn1nnc2cc(-c3cnc(N4CCC(NCc5ccc(/C=C/C(=O)NO)nc5)CC4)c(C#N)c3-c3ccc(C#N)c(F)c3)ccc21 [Example 225] | nM | 3.43 |
| COc1ccc(-c2c(OC)cc(N3CCC(NCc4ccc(/C=C/C(=O)NO)cc4)CC3)nc2-c2ccc(C#N)c(F)c2)cc1O [Example 54, formate] | nM | 34.4 |

Give the reported value of IC50 for this record: COc1ccc(-c2cnc(N3CCC(NCc4ccc(/C=C(\C)C(=O)NO)nc4)CC3)c(C#N)c2-c2ccc(C#N)c(F)c2)cc1O [Example 220, formate]
937

---

# Tested on: NCI-H526 cells
# PROTOCOL: In vitro cell inhibition assay - NCI-H526 cell proliferation (CellTiter-Glo)
# Format: cell-based
# CONDITION_INFO: Homo sapiens, NCI-H526, 120 h, H526 small cell lung cancer cell proliferation, 5 days
Where a name gives a salt, the structure may show the parent alone.
Task for the reader: assign each of the following compounds its reported pIC50.
Numbers only, as −log10 of the molar value.

| COMPOUND | RECORDED_NUMBER |
| --- | --- |
| COc1ccc(-c2cnc(N3CCC(NCc4ccc(/C=C/C(=O)NO)cc4)CC3)c(C#N)c2-c2ccc(C#N)c(F)c2)cc1 [Example 52, hydrochloride] | 6.95 |
| COc1ccc(-c2cnc(N3CCC(C)(NCc4cnc(/C=C/C(=O)NO)nc4)CC3)c(C#N)c2-c2ccc(C#N)c(F)c2)cc1O [Example 206, formate] | 6.97 |
| CC(C)(O)Cn1nnc2cc(-c3cnc(N4CCC(NCc5ccc(/C=C/C(=O)NO)cc5)CC4)c(C#N)c3-c3ccc(C#N)c(F)c3)ccc21 [Example 197, formate] | 6.71 |
| N#Cc1ccc(-c2c(-c3ccc(/C=C/C(=O)NO)c(O)c3)cnc(N3CCC(NCc4ccc(/C=C/C(=O)NO)cc4)CC3)c2C#N)cc1F [Example 90] | 7.46 |
| COc1ccc(-c2cnc(N3CCC(NCc4ccc(/C=C/C(=O)NO)cc4)CC3)c(C#N)c2-c2ccc(C#N)cc2)cc1O [Example 118] | 8.09 |

Give the reported value of pIC50 for this record: COc1ccc(-c2cnc(N3CCC(NCc4ccc(/C=C/C(=O)NO)s4)CC3)c(C#N)c2-c2ccc(C#N)c(F)c2)cc1O [Example 105, formate]
6.91

---

# ASSAYED_TARGET: LSD1 (Homo sapiens (Human), UniProt O60341)
Counter-ions that a name gives are not always drawn.
Could you please mark 1.0 for values of IC50 below 7 nM and 0.0 for values at or above it?

| MOLECULE | CLASS_ASSIGNMENT |
| --- | --- |
| COc1ccc(-c2c(OCCCCCCC(=O)NO)cc(N3CCC(N)CC3)nc2-c2ccc(C#N)cc2)cc1O | 1.0 |
| COc1ccc(-c2cnc(N3CCC(N)(CCc4ccc(/C=C/C(=O)NO)cc4)CC3)c(C#N)c2-c2ccc(C#N)c(F)c2)cc1O [Example 86, formate] | 0.0 |
| CNc1ccc(-c2cnc(N3CCC(NCc4cnc(/C=C/C(=O)NO)nc4)CC3)c(C#N)c2-c2ccc(C#N)c(F)c2)cc1O [Example 196, hydrochloride] | 1.0 |
| COc1ccc(-c2cnc(N3CCC(NCc4ccc(/C=C/C(=O)NO)nc4)CC3)c(OC)c2-c2ccc(C#N)nc2)cc1O [Example 266, formate] | 0.0 |
| N#Cc1ccc(-c2c(-c3ccc(OC(F)F)c(O)c3)cnc(N3CCC(NCc4cnc(/C=C/C(=O)NO)nc4)CC3)c2C#N)cc1F [Example 145, formate] | 1.0 |

Now turn to the next molecule.
In plain terms, does COc1ccc(-c2cnc(N3CCC(NCc4ccc(/C=C/C(=O)NO)cc4F)CC3)c(C#N)c2-c2ccc(C#N)nc2)cc1O [Example 252, formate] come in under 7 nM for IC50?
1.0

---

# ASSAYED_TARGET: LSD1 (Homo sapiens (Human))
# PROTOCOL: In vitro enzyme inhibition assay - LSD1 (HTRF)
# Type: biochemical
# Description: 1. In Vitro Enzyme Inhibition Assay—LSD1 Initially, a master solution of 90 μM test compound (dissolved in DMSO) was prepared and sequentially diluted with DMSO in a 5-fold concentration gradient to yield a total of 9 concentrations of the compound working solution 1 (90×). […] The inhibition rate was calculated through the following formula: […]
Counter-ions that a name gives are not always drawn.
Task for the reader: assign each of the following compounds its reported pIC50.
One number for each entry, as −log10 of the molar value.

Record excerpt, results attached:
| COMPOUND | RECORDED_NUMBER |
| --- | --- |
| COc1ccc(-c2cnc(N3CCC(NCc4cnc(CCC(=O)NO)nc4)CC3)c(C#N)c2-c2ccc(C#N)c(F)c2)cc1O [Example 152, hydrochloride] | 8.94 |
| N#Cc1ccc(-c2c(-c3ccc(C4CC4)c(O)c3)cnc(N3CCC(NCc4ccc(/C=C/C(=O)NO)cc4)CC3)c2C#N)cc1F | 8.81 |
| COc1ccc(-c2cnc(N3CCC(NCc4ccc(/C=C/C(=O)NO)o4)CC3)c(C#N)c2-c2ccc(C#N)c(F)c2)cc1O [Example 178, formate] | 9.19 |
| COc1cc(N2CCC(N)CC2)nc(-c2ccc(C#N)c(F)c2)c1-c1ccc(OCCCCCCC(=O)NO)c(O)c1 [Example 27, hydrochloride] | 8.86 |
| COc1ccc(-c2cnc(N3CCC(NCc4cccc(/C=C/C(=O)NO)c4)CC3)c(C#N)c2-c2ccc(C#N)c(F)c2)cc1O | 9.01 |
| COc1cc(-c2cnc(N3CCC(NCc4cnc(/C=C/C(=O)NO)nc4)CC3)c(C#N)c2-c2ccc(C#N)c(F)c2)ccc1O | 7.40 |
| COc1ccc(-c2cnc(N3CCC(NCc4cnc(/C=C/C(=O)NO)nc4)CC3)c(C)c2-c2ccc(C#N)c(F)c2)cc1O [Example 202, formate] | 7.13 |
| COc1ccc(-c2cnc(N3CCC(C)(NCc4ccc(/C=C/C(=O)NO)cc4)CC3)c(C#N)c2-c2ccc(C#N)c(F)c2)cc1O [Example 44, formate] | 8.59 |
| COc1ccc(-c2cnc(N3CCC(NCc4ccc5sc(C(=O)NO)cc5c4)CC3)c(C#N)c2-c2ccc(C#N)c(F)c2)cc1O [Example 173, formate] | 9.09 |
| COc1ccc(-c2cnc(N3CCC(NCc4ccc(/C=C/C(=O)NO)nn4)CC3)c(C#N)c2-c2ccc(C#N)c(F)c2)cc1O [Example 160, formate] | 8.95 |

Could I get pIC50 for every one of these entries?
1. COc1ccc(-c2c(-c3ccc(C#N)c(F)c3)nc(N3CCC(N)CC3)n3ccnc23)cc1OCCCCCCC(=O)NO [Example 20, hydrochloride]
2. Cc1nc(N2CCC(N)CC2)c(C#N)c(-c2ccc(C#N)c(F)c2)c1-c1ccc(OCCCCCCC(=O)NO)c(O)c1 [Example 26, hydrochloride]

7.77
9.92

---

# ASSAYED_TARGET: LSD1 (Homo sapiens (Human), UniProt O60341)
Counter-ions that a name gives are not always drawn.
MEASURED_METRIC: pIC50
Give bare numbers, as −log10 of the molar value.

Record excerpt, results attached:
| COMPOUND | pIC50 |
| --- | --- |
| COC(=O)c1ccc(-c2c(-c3ccc(OC)c(O)c3)cnc(N3CCC(NCc4ccc(/C=C/C(=O)NO)cc4)CC3)c2C#N)cn1 [Example 253, formate] | 6.47 |
| CC(C)(O)COc1ccc(-c2cnc(N3CCC(NCc4cnc(/C=C/C(=O)NO)nc4)CC3)c(C#N)c2-c2ccc(C#N)c(F)c2)cc1O [Example 187, formate] | 8.39 |
| COc1ccc(-c2cnc(N3CCC(C)(NCc4ccc(/C=C/C(=O)NO)nc4)CC3)c(C#N)c2-c2ccc(C#N)c(F)c2)cc1O [Example 213, formate] | 8.67 |
| COc1ccc(-c2cnc(N3CCC(NCc4ccc(/C=C/C(=O)NO)c(F)c4)CC3)c(C#N)c2-c2ccc(C#N)nc2)cc1O [Example 258, formate] | 8.85 |

Could I get pIC50 for every one of these entries?
1. COc1ccc(-c2cnc(N3CCC(NCc4ccc(/C(C)=C/C(=O)NO)cc4)CC3)c(C#N)c2-c2ccc(C#N)c(F)c2)cc1O [Example 170, formate]
2. Cc1ccc(-c2cnc(N3CCC(NCc4ccc(/C=C/C(=O)NO)cc4)CC3)c(C#N)c2-c2ccc(C#N)c(F)c2)cc1O [Example 102, formate]

1: 9.37; 2: 8.88
